Recorded TGI for the following compounds
- System: ACHN renal
- PROCEDURE SUMMARY: NCI tumour cell line growth inhibition, 48 h
Number in µM, nothing else.

Here is how some compounds turned out for TGI.
Requested field: TGI. Item: "O=C(/C=C/c1ccccc1)Oc1ccc(C(=O)/C=C/c2ccccc2)cc1"
18.3

Requested field: TGI. Item: Cc1nn(-c2ccccc2)c2c1C(c1cc3ccccc3nc1Cl)NC(=O)N2 (configuration not stated)
35.8

Next up:
Requested field: TGI. Item: "CCOc1cc(/C=C2/C(C)=NN(c3cccc(Cl)c3)/C2=N/c2nc3ccccc3s2)ccc1O"
63.6

====

Recorded TGI for the following molecules
- Tested on: KM12 colon
- PROCEDURE SUMMARY: NCI tumour cell line growth inhibition, 48 h

Requested field: TGI. Item: "CC(C)(/C=C(\C#N)C(=O)N1CCC[C@@H](n2nc(-c3ccc(Oc4ccccc4)cc3F)c3c(N)ncnc32)C1)N1CCN(C2COC2)CC1"
14 µM

Requested field: TGI. Item: "O=C(O)CCNc1ncnc2nc[nH]c12"
> 100 µM

Requested field: TGI. Item: O=C(Nc1cccc(Cl)c1)C(=O)C(C(=O)c1ccc2ccccc2c1)C1OC(=O)c2ccccc21 (stereo not drawn)
60.3 µM

Requested field: TGI. Item: C=CCCCCC1CCC2CCC(CCCCC=C)N12 (stereo not drawn)
29.6 µM

Requested field: TGI. Item: "COc1ccc(OCC(=O)O)c2c1CCCC2=O"
> 100 µM

Next:
Requested field: TGI. Item: CCn1c(O)c(/C=N/NC(=O)C(C)c2ccc(CC(C)C)cc2)sc1=S (stereo not drawn)
> 32.8 µM

Requested field: TGI. Item: "COc1ccc(-c2nc(SCC(=O)NNC(=S)Nc3ccccc3)[nH]c2-c2ccc(OC)cc2)cc1"
85.9 µM

Requested field: TGI. Item: "Nc1c(C(=O)N/N=C/c2ccccc2)sc(=S)n1-c1ccccc1"
> 100 µM

====

- System: SK-MEL-2 melanoma
- PROCEDURE SUMMARY: NCI tumour cell line growth inhibition, 48 h; in the data active = GI50 below about 0.43 µM; inactive = the rest
Give one outcome, nothing more. List: active, inactive

Per the assay record, what outcome was assigned to "N#Cc1nn(-c2cc(=O)[nH]c3ccc(Cl)cc23)c(N)c1C#N" ?
inactive

Per the assay record, what outcome was assigned to "CN(C)C1CCN(C(=O)c2ccc(NC(=O)Nc3ccc(-c4nc(N5CCOCC5)c5cccn5n4)cc3)cc2)CC1" ?
active

Per the assay record, what outcome was assigned to "O=C(Cc1ccc(F)c(Cl)c1)Nc1cc(C2(C(F)(F)F)CC2)nn1CC1CCCCC1" ?
inactive

====

- Tested on: HOP-62 NSCLC
- PROCEDURE SUMMARY: NCI tumour cell line growth inhibition, 48 h; in the data active = GI50 below about 0.43 µM; inactive = the rest
Give one outcome, nothing more. List: true for active, false for inactive

Per the assay record, what outcome was assigned to "Nc1ncc(-c2ccc3ncnc(Nc4ccc(F)c(Cl)c4)c3c2)cn1" ?
false

Per the assay record, what outcome was assigned to "Cc1cc(N[C@@H]2CCC[C@H](Nc3ccnc4cc(Cl)ccc34)C2)nc(N2CCCCCC2)n1" ?
false

Per the assay record, what outcome was assigned to "CCOC(=O)Nc1cc2c(c(N)n1)N=C(c1ccccc1)CO2" ?
false

Next:
Per the assay record, what outcome was assigned to "CN(C)C1CCN(C(=O)c2ccc(NC(=O)Nc3ccc(-c4nc(N5CCOCC5)c5cccn5n4)cc3)cc2)CC1" ?
true

Per the assay record, what outcome was assigned to CC(NCCC(c1ccccc1)c1ccccc1)c1ccccc1 (stereo not given) ?
false

Per the assay record, what outcome was assigned to N=c1c2c(-c3ccccc3)c(-c3ccccc3)n(Cc3ccccc3)c2ncn1C1CCC(O)CC1 (stereo not given) ?
true

Per the assay record, what outcome was assigned to CCn1c(O)c(/C=N/NC(=O)C(C)c2ccc(CC(C)C)cc2)sc1=S (stereo not given) ?
false

Per the assay record, what outcome was assigned to "CCCC(=O)Nc1cn(COC)c(C(=O)N2C[C@@H]3C[C@]34C2=CC(=O)c2[nH]cc(C)c24)n1" ?
false

Per the assay record, what outcome was assigned to "CNCCOC(=O)/C=C1\CC[C@H]2[C@@H]([C@@H](O)C(=O)[C@@H]3[C@]2(C)CC[C@H](O)[C@]3(C)C(=O)OC)[C@H]1C" ?
true

Per the assay record, what outcome was assigned to "Nc1ncn([C@@H]2O[C@H](CO)[C@@H](O)[C@H]2O)c(=O)n1" ?
false

Per the assay record, what outcome was assigned to "COc1cnc2c(c1)C(=O)c1c-2n(CCCN2CCOCC2)c(=O)c2cc(Cl)ccc12" ?
true

Per the assay record, what outcome was assigned to "O=C(NC[C@H](O)CN1CCc2ccccc2C1)c1cc(NC2COC2)ncn1" ?
false

====

- System: HT29 colon
- PROCEDURE SUMMARY: NCI tumour cell line growth inhibition, 48 h
MEASURE NAME: TGI

Requested field: TGI. Item: "O=C1OCC/C1=N/O"
> 100 µM

Next:
Requested field: TGI. Item: "CCOc1cc(/C=C2/C(C)=NN(c3cccc(Cl)c3)/C2=N/c2nc3ccccc3s2)ccc1O"
> 100 µM

Requested field: TGI. Item: "CSc1nc(SC)c2c(C#N)[nH]nc2n1"
> 100 µM

Requested field: TGI. Item: "COc1ccc(-c2ccc(=O)oc2C#Cc2cc(OC)c(OC)c(OC)c2)cc1O"
12.3 µM

Requested field: TGI. Item: "Cc1cc(/N=C/c2ccc(N(C)C)cc2)n(-c2ccccc2)n1"
> 100 µM

Requested field: TGI. Item: "CSc1cc(-c2cccs2)sc1-c1cc(SC)c(-c2sc(-c3sc(-c4cccs4)cc3SC)cc2SC)s1"
> 100 µM

Requested field: TGI. Item: "CN(C)CCC(/C=C/c1ccccc1)=N\Nc1ccccc1"
15.4 µM

====

- Tested on: HL-60(TB) leukemia
- PROCEDURE SUMMARY: NCI tumour cell line growth inhibition, 48 h; in the data active means GI50 below about 0.43 µM; inactive means the rest
Give one outcome, nothing more. List: t = active, f = inactive

Known results for compounds:
Per the assay record, what outcome was assigned to "C[n+]1c(/C=C/c2c(O)ccc3ccccc23)ccc2ccccc21" ?
f

Per the assay record, what outcome was assigned to "CNCCOC(=O)/C=C1\CC[C@H]2[C@@H]([C@@H](O)C(=O)[C@@H]3[C@]2(C)CC[C@H](O)[C@]3(C)C(=O)OC)[C@H]1C" ?
t

Next:
Per the assay record, what outcome was assigned to "O=c1c(F)cn(Cc2ccc(C34CC5CC(CC(C5)C3)C4)c(O)c2)c(=O)n1Cc1ccc(C23CC4CC(CC(C4)C2)C3)c(O)c1" ?
f

Per the assay record, what outcome was assigned to "Nc1ncc(-c2ccc3ncnc(Nc4ccc(F)c(Cl)c4)c3c2)cn1" ?
f

Per the assay record, what outcome was assigned to "O=C(Nc1cccc(C(F)(F)F)c1)c1ccc(NC2=C(Cl)C(=O)N(Cc3ccc(Cl)cc3Cl)C2=O)cc1" ?
f

Per the assay record, what outcome was assigned to "O=C(Cc1ccc(F)c(Cl)c1)Nc1cc(C2(C(F)(F)F)CC2)nn1CC1CCCCC1" ?
f

Per the assay record, what outcome was assigned to "COc1cc(C(=O)N2CCN(C(=O)c3cc(OC)c(OC)c(OC)c3)C2=S)cc(OC)c1OC" ?
f

Per the assay record, what outcome was assigned to CC(=O)ON1CCCC(P(=O)(OCCSC(=O)C(C)(C)C)OCCSC(=O)C(C)(C)C)C1=O (centres undefined) ?
f

Per the assay record, what outcome was assigned to "N#Cc1nn(-c2cc(=O)[nH]c3ccc(Cl)cc23)c(N)c1C#N" ?
f

====

- Tested on: IGROV1 ovarian
- PROCEDURE SUMMARY: NCI tumour cell line growth inhibition, 48 h
Recorded GI50 for the following molecules

Requested field: GI50. Item: "COc1ccc(-c2nnc3n(C)c(=O)c4ccccc4n23)cc1N"
14.7 µM

Requested field: GI50. Item: "S=c1[nH]c(=S)c2cc3ccccc3nc2[nH]1"
23 µM

Next up:
Requested field: GI50. Item: "O=C(NC[C@H](O)CN1CCc2ccccc2C1)c1cc(NC2COC2)ncn1"
15.7 µM

====

Recorded TGI for the following compounds
- Test system: K-562 leukemia
- PROCEDURE SUMMARY: NCI tumour cell line growth inhibition, 48 h

Here is how some compounds turned out for TGI.
API: value(readout= TGI, system= K-562 leukemia, query= "CSc1nc(SC)c2c(C#N)[nH]nc2n1" )
> 100 µM

API: value(readout= TGI, system= K-562 leukemia, query= "c1ccc2c(OCCSCCCCCCCCCCSCCOc3cccc4ccccc34)cccc2c1" )
> 100 µM

API: value(readout= TGI, system= K-562 leukemia, query= C=CCC1(c2ccc(OC)cc2)C=CC(=O)CC1 (configuration not stated) )
> 100 µM

API: value(readout= TGI, system= K-562 leukemia, query= "COc1ccc(-c2nc(SCC(=O)NNC(=S)Nc3ccccc3)[nH]c2-c2ccc(OC)cc2)cc1" )
> 100 µM

API: value(readout= TGI, system= K-562 leukemia, query= "CCOc1ccc(/C=C2\N=C(c3ccc([N+](=O)[O-])cc3)OC2=O)cc1" )
> 100 µM

Next:
API: value(readout= TGI, system= K-562 leukemia, query= "CCN1CCN(c2cc(C)c3cc(NC(=O)c4ccc(OC)c(OC)c4)ccc3n2)CC1" )
> 100 µM

API: value(readout= TGI, system= K-562 leukemia, query= COc1cc2c(cc1OC)C1C3CCCCC3CCN1CC2 (configuration not stated) )
> 100 µM

API: value(readout= TGI, system= K-562 leukemia, query= "CSc1cc(-c2cccs2)sc1-c1cc(SC)c(-c2sc(-c3sc(-c4cccs4)cc3SC)cc2SC)s1" )
> 100 µM

API: value(readout= TGI, system= K-562 leukemia, query= "CCC[CH2][Sn]([CH2]CCC)([O]C(=O)c1ccc(OC)c(OC)c1OC)[O][Sn]([CH2]CCC)([CH2]CCC)[O]C(=O)c1ccc(OC)c(OC)c1OC" )
1.86 µM

API: value(readout= TGI, system= K-562 leukemia, query= "NCCCN1c2ccccc2Sc2ccc(Cl)cc21" )
> 8.41 µM

API: value(readout= TGI, system= K-562 leukemia, query= "O=C(O)CCNc1ncnc2nc[nH]c12" )
> 100 µM

API: value(readout= TGI, system= K-562 leukemia, query= "CCCNc1ncnc2c1ncn2C" )
> 100 µM

API: value(readout= TGI, system= K-562 leukemia, query= "CCOC(=O)Nc1cc2c(c(N)n1)N=C(c1ccccc1)CO2" )
34 µM

API: value(readout= TGI, system= K-562 leukemia, query= "NC(=O)c1c(NC(=O)c2ccccc2)sc2c1CCC(=O)C2" )
> 100 µM

API: value(readout= TGI, system= K-562 leukemia, query= "CCCCCCCCCCCCCCCCNc1cccc2ccccc12" )
> 100 µM

API: value(readout= TGI, system= K-562 leukemia, query= Cc1ccc(C2=CC(=O)OC(C[P+](c3ccccc3)(c3ccccc3)c3ccccc3)(c3ccccc3)O2)cc1 (configuration not stated) )
> 100 µM

API: value(readout= TGI, system= K-562 leukemia, query= "CC(=NNC(=S)Nc1ccccc1)c1cccc(C(C)=NNC(=S)Nc2ccccc2)n1" )
> 53.5 µM

API: value(readout= TGI, system= K-562 leukemia, query= "CCC(C)(C)c1ccc(OCCCCNC(=O)c2ccc3ccccc3c2O)c(C(C)(C)CC)c1" )
> 100 µM

API: value(readout= TGI, system= K-562 leukemia, query= "N#CNC(=NCc1ccccc1)N(Cc1ccccc1)Cc1ccccc1" )
> 100 µM

API: value(readout= TGI, system= K-562 leukemia, query= "Cc1nc(Nc2cccnc2)sc1C(=O)/C=C/c1ccc(F)cc1" )
> 100 µM

API: value(readout= TGI, system= K-562 leukemia, query= "CC(C)C1=Cc2ccc3c(c2C(=O)C1=O)CCCC3(C)C" )
> 100 µM

API: value(readout= TGI, system= K-562 leukemia, query= C#CC1/C(=C\C(=O)OC)CCCC1O (configuration not stated) )
> 100 µM
